The reported numbers originate from the NIST ThermoML archive (doi:10.1016/j.jct.2013.12.009).

EXPERIMENTAL_SETUP: 298.15 K, Pendant drop shape
Numbers after ± are expanded uncertainties.
OBSERVABLE: surface tension liquid-gas

In: Which surface tension liquid-gas value is on record for CC#N [acetonitrile] ?
Out: 28.34 ± 0.34 mN/m

In: Which surface tension liquid-gas is listed for CO [methanol] ?
Out: 22 ± 0.3 mN/m

In: # get_value(readout='surface tension liquid-gas', item= CCCC[N+]1(C)CCCC1.O=S(=O)([N-]S(=O)(=O)C(F)(F)F)C(F)(F)F )
Out: 33.22 ± 0.4 mN/m

In: Query: surface tension liquid-gas; subject: CCC[N+]1(C)CCCC1.O=S(=O)([N-]S(=O)(=O)C(F)(F)F)C(F)(F)F
Out: 34.61 ± 0.41 mN/m
